Data provenance: ChEMBL document CHEMBL1128288

Tested on: Enterobacter cloacae
EXPERIMENT: In vitro antibacterial activity measured as minimum inhibitory concentration, was evaluated on Enterobacter cloacae ATCC 23355 (Ecl).
Type: functional
SETTINGS: Enterobacter cloacae, ATCC 23355; read-out: MIC
MEASUREMENT KIND: MIC (µg/mL)
Kindly answer with a numeric value in µg/mL, unit omitted.

[ask] # MIC lookup, item CC1COc2c(N3CC(C)(N)C3)c(F)cc3c(=O)c(C(=O)O)cn1c23 (single isomer, unassigned)
[reply] 4

[ask] # MIC lookup, item CC1C(N)CN1c1c(F)cc2c(=O)c(C(=O)O)cn(C3CC3)c2c1Cl (configuration not stated)
[reply] 0.03

[ask] # MIC lookup, item CC1C(N)CN1c1nc2c(cc1F)c(=O)c(C(=O)O)cn2C1CC1 (configuration not stated)
[reply] 0.03

[ask] # MIC lookup, item `C[C@H]1COc2c(N3CCN(C)CC3)c(F)cc3c(=O)c(C(=O)O)cn1c23.C[C@H]1COc2c(N3CCN(C)CC3)c(F)cc3c(=O)c(C(=O)O)cn1c23.O`
[reply] 0.03

[ask] # MIC lookup, item `C[C@@H]1[C@@H](N)CN1c1c(F)cc2c(=O)c(C(=O)O)cn(-c3ccc(F)cc3)c2c1F`
[reply] 0.015

[ask] # MIC lookup, item C[C@H]1[C@H](N)CN1c1cc2c(cc1F)c(=O)c(C(=O)O)cn2C1CC1 (single isomer, unassigned)
[reply] 0.015

[ask] # MIC lookup, item `C[C@H]1COc2c(N3CC(C)(N(C)C)C3)c(F)cc3c(=O)c(C(=O)O)cn1c23`
[reply] 0.5

* * *

System: Enterobacter cloacae
EXPERIMENT: In vitro antibacterial activity measured as minimum inhibitory concentration, was evaluated on Enterobacter cloacae ATCC 23355 (Ecl).
Type: functional
SETTINGS: Enterobacter cloacae, ATCC 23355; read-out: MIC
I'd be grateful if you could share measured MIC for these entries.
Kindly answer with a numeric value in µg/mL, unit omitted.

[ask] # MIC lookup, item C[C@@H]1[C@H](N)CN1c1c(F)cc2c(=O)c(C(=O)O)cn(C3CC3)c2c1F (stereo in doubt; 23)
[reply] 0.06

[ask] # MIC lookup, item `C[C@H]1COc2c(N3CC(C)(N)C3)c(F)cc3c(=O)c(C(=O)O)cn1c23`
[reply] 0.015

[ask] # MIC lookup, item `CC(C)C[C@H](N)C(=O)N[C@@H]1CN(c2nc3c(cc2F)c(=O)c(C(=O)O)cn3C2CC2)[C@H]1C`
[reply] 0.12

[ask] # MIC lookup, item CCn1cc(C(=O)O)c(=O)c2cc(F)c(N3CC(N)C3C)c(F)c21 (stereo unspecified)
[reply] 0.06

[ask] # MIC lookup, item `C[C@@H]1[C@@H](N)CN1c1c(F)cc2c(=O)c(C(=O)O)cn(C3CC3)c2c1Cl`
[reply] 0.25

[ask] # MIC lookup, item CC1C(N)CN1c1c(F)c(N)c2c(=O)c(C(=O)O)cn(C3CC3)c2c1F (stereo unspecified)
[reply] 0.015

* * *

I'd be grateful if you could share measured solubility for these entries.
EXPERIMENT: Solubility at pH 7.4 buffer.
Type: physicochemical

[ask] # solubility lookup, item `CC(C)C[C@H](N)C(=O)N[C@@H]1CN(c2nc3c(cc2F)c(=O)c(C(=O)O)cn3C2CC2)[C@H]1C`
[reply] > 500 µg/mL

[ask] # solubility lookup, item `C[C@@H]1[C@@H](NC(=O)[C@@H](C)N)CN1c1nc2c(cc1F)c(=O)c(C(=O)O)cn2C1CC1`
[reply] > 500 µg/mL

[ask] # solubility lookup, item `CCC[C@H](N)C(=O)N[C@@H]1CN(c2cc3c(cc2F)c(=O)c(C(=O)O)cn3-c2ccc(F)cc2F)[C@H]1C`
[reply] > 500 µg/mL
